Biological target: recombinant human HDAC1 (Homo sapiens)
Sequence (Q13547 whole entry): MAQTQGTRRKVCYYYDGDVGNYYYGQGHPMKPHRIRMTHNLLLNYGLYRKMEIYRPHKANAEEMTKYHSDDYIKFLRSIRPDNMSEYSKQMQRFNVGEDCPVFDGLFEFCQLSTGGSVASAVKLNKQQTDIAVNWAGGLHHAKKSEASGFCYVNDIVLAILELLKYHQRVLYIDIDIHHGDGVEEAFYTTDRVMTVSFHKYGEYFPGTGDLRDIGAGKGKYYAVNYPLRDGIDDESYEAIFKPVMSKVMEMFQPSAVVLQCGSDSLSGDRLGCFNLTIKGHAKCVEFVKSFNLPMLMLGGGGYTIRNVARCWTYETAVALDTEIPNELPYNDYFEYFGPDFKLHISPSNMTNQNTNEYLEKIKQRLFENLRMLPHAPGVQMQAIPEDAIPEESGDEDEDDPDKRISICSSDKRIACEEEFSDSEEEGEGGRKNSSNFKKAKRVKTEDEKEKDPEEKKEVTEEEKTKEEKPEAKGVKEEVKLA
Experiment: In vitro HDAC assay with fluorogenic substrate, HDAC 1
As shown below, each of these molecules has a reported IC50 value.

MOLECULAR STRING: O=C(O)CCCCCCC(=O)Nc1ccc([C@H]2O[C@@H](CSc3nc(-c4ccccc4)c(-c4ccccc4)o3)C[C@@H](c3ccc(CO)cc3)O2)cc1
IC50: > 100 nM

MOLECULAR STRING: O=C(CCCCCCC(=O)Nc1ccc([C@H]2O[C@@H](CSc3nc(-c4ccccc4)c(-c4ccccc4)o3)C[C@@H](c3ccc(CO)cc3)O2)cc1)NO
IC50: 82 nM

MOLECULAR STRING: CC(C)(C)OC(=O)Nc1ccc(-c2cc(C(=O)NCCCCCCC(=O)NO)no2)cc1
IC50: 53.7 nM
